molecular target: ErbB-3 receptor-Ig fusion (homodimer) (human, UniProt P21860 20-643; P21860 20-636); assay: phage ELISA, soluble ErbB-3-Ig as competitor
Sequence (P21860 other isoform, or with tags, fused parts or gaps): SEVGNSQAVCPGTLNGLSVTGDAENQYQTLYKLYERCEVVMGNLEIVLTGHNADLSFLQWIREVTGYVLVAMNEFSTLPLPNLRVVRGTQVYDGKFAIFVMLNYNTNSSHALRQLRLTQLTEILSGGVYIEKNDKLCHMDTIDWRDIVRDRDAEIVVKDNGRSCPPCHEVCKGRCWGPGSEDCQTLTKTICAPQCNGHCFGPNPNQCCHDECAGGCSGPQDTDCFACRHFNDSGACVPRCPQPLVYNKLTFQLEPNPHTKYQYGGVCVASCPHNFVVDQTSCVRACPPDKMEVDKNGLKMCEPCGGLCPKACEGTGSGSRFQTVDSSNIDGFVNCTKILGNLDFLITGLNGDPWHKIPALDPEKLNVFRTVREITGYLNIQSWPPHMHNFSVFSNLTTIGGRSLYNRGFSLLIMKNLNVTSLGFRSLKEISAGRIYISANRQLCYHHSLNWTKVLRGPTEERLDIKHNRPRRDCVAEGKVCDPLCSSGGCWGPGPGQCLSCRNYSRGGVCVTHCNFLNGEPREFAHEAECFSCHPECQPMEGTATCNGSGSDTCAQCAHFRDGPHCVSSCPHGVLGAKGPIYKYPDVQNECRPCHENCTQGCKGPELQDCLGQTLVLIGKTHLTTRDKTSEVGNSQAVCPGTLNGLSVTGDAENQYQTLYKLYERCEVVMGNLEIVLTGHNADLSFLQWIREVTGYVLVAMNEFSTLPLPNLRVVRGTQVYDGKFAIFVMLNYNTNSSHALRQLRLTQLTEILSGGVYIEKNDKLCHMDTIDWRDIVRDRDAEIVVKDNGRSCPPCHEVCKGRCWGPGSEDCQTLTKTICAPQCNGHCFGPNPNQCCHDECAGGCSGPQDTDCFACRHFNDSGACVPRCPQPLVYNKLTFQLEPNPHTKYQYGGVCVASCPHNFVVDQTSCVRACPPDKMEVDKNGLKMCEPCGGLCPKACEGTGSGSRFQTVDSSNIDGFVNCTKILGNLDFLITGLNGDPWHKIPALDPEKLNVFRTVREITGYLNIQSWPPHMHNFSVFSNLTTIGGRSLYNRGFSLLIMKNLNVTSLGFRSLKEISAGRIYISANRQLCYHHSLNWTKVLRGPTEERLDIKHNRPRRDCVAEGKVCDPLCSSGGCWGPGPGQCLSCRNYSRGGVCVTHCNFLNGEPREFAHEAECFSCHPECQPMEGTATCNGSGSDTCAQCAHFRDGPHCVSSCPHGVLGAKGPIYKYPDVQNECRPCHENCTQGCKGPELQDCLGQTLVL
Ends that are not written are not given here.
Each entry below lists one item and its recorded EC50(wt)/EC50(mut) value.

>  <BINDER>
SHLVKCGEEREGFCVNGGECYRVKTYGYLMCKCPNEFTGDRCQNYVMAS (ligand, not fully specified; cysteine pairing not given here, not shown: Display carrier: (GGGS)3 linker and M13 pIII C-terminal fragment from residue 323) [combination variant HRG55, phage-displayed]

>  <EC50(wt)/EC50(mut)>
13 ratio

$$$$
>  <BINDER>
SHLVKCGEEREGFCVNGGECFMVKDYGYLMCKCPNEFTGDRCQNYVMAS (ligand, not fully specified; cysteine pairing not given here, not shown: Display carrier: (GGGS)3 linker and M13 pIII C-terminal fragment from residue 323) [combination variant HRG54, phage-displayed]

>  <EC50(wt)/EC50(mut)>
12 ratio

$$$$
>  <BINDER>
combination variant HRG60, phage-displayed (ligand, not fully specified; cysteine pairing not given here, not shown: Display carrier only: (GGGS)3 linker and the M13 pIII C-terminal fragment from residue 323) SHLVKCGEEREGFCVNGGECYRVKTLSNPSRYLCKCPNEFTGDRCQNYVIAS

>  <EC50(wt)/EC50(mut)>
63 ratio

$$$$
>  <BINDER>
combination variant HRG53, phage-displayed (ligand, not fully specified; cysteine pairing not given here, not shown: Display carrier: (GGGS)3 linker and M13 pIII C-terminal fragment from residue 323) SHLVKCGEEREGFCVNGGECYRVKTLSNPSRYLCKCPNEFTGDRCQNYVMAS

>  <EC50(wt)/EC50(mut)>
26 ratio

$$$$
>  <BINDER>
HRG90: HRG-β1 EGF Met226Ile, phage-displayed (ligand, phage M13, range 323-end) SHLVKCAEKEKTFCVNGGECFMVKDLSNPSRYLCKCPNEFTGDRCQNYVIASGGGSGGGSGGGSNSQMAQVGDGDNSPLMNNFRQYLPSLPQSVECRPFVFSAGKPYEFSIDCDKINLFRGVFAFLLYVATFMYVFSTFANILRNKES

>  <EC50(wt)/EC50(mut)>
6.3 ratio

$$$$
>  <BINDER>
SHLVKCAEKEKTFCVNGGECFMVKDYGYLMCKCPNEFTGDRCQNYVIAS (ligand, not fully specified; cysteine pairing not given here, not shown: Display carrier: (GGGS)3 linker and M13 pIII C-terminal fragment from residue 323) [combination variant HRG48, phage-displayed]

>  <EC50(wt)/EC50(mut)>
49 ratio

$$$$
>  <BINDER>
SHLVKCAEKEKTFCVNGGECFMVKDYRYRMCKCPNEFTGDRCQNYVIAS (ligand, not fully specified; cysteine pairing not given here, not shown: Display carrier only: the (GGGS)3 linker and the M13 pIII C-terminal fragment from residue 323) [HRG-β1 EGF variant E3, phage-displayed]

>  <EC50(wt)/EC50(mut)>
16 ratio

$$$$
>  <BINDER>
HRG-β1 EGF variant D10, phage-displayed (ligand, not fully specified; cysteine pairing not given here, pHRG8-g3 scaffold; not shown: Display carrier only: the (GGGS)3 linker and the M13 pIII C-terminal fragment from residue 323) SHLVKCAEKEKTFCVNGGECYMVKTLSNPSRYLCKCPNEFTGDRCQNYVMAS

>  <EC50(wt)/EC50(mut)>
2.1 ratio

$$$$
